Molecular target: Human M4 (Homo sapiens, UniProt P08173)
Sequence (P08173 whole entry): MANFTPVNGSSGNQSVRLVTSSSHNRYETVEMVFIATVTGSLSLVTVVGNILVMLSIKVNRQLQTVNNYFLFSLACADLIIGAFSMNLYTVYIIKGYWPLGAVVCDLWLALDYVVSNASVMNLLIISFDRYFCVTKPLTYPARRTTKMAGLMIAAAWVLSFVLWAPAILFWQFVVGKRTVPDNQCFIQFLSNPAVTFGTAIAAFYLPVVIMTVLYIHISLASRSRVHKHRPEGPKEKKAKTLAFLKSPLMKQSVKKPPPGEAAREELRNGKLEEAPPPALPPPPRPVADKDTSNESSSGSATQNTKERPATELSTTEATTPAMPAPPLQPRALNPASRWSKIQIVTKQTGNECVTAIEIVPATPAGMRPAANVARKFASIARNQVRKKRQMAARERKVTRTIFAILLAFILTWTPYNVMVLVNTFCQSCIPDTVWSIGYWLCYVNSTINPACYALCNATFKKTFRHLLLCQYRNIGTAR
Assay: mAChR M4 cell-based functional assay (calcium flux, potentiation of EC20 acetylcholine response)
pEC50: −log10 of the molar value.
Collected pEC50 values appear next to each entry.
result type: pEC50

> print(dat)
                                   compound                            target.system  quantitative.result
1               CCc1ncnc2c1sc1nc(C)cc(C)c12  Human M4 (Homo sapiens, UniProt P08173)                 5.54
2  Cc1cc(C)c2c(n1)sc1c(C3CCN(C(=O)C4(F)CC4)CC3)ncnc12  Human M4 (Homo sapiens, UniProt P08173)                 6.09
3  Cc1nnc2sc3c(C4CCCN(C=O)C4)ncnc3c2c1C (centres unmarked)  Human M4 (Homo sapiens, UniProt P08173)                 6.29
4           Cc1nnc2sc3c(C4CCNCC4)ncnc3c2c1C  Human M4 (Homo sapiens, UniProt P08173)                 5.37
5             CCCCc1ncnc2c1sc1nnc(C)c(C)c12  Human M4 (Homo sapiens, UniProt P08173)                 6.27

* * *

Biological target: Human M4 (Homo sapiens)
Experiment: mAChR M4 cell-based functional assay (calcium flux, potentiation of EC20 acetylcholine response)
Set-up: dose or concentration left out as unconfirmed
Settings: CHO-K1
Collected Emax values appear next to each entry.
result type: Emax (%)

> print(dat)
                                    compound  quantitative.result
 1       Cc1cc(C)c2c(n1)sc1c(C3CCOCC3)ncnc12                 98.8
 2  Cc1cc(C)c2c(n1)sc1c(C3CCN(C=O)CC3)ncnc12                 65.6
 3     Cc1nnc2sc3c(C4CCC(F)(F)CC4)ncnc3c2c1C                 96.3
 4  Cc1cc(C)c2c(n1)sc1c(C3CCN(C4COC4)CC3)ncnc12                 41.8
 5           Cc1nnc2sc3c(C4CCNCC4)ncnc3c2c1C                 33.8
 6       Cc1cc(C)c2c(n1)sc1c(C3CCNCC3)ncnc12                 98.8
 7  Cc1nnc2sc3c(C4CCN(C(=O)C5CCCO5)CC4)ncnc3c2c1C (centres unmarked)                 58.2
 8  Cc1cc(C)c2c(n1)sc1c(C3CCN(C(=O)C4CCC4)CC3)ncnc12                 72.3
 9          Cc1cc(C)c2c(n1)sc1c(C3CC3)ncnc12                 61.5
10       Cc1cc(C)c2c(n1)sc1c(-c3nccs3)ncnc12                 62.2
11  Cc1nnc2sc3c(C4CCCN(C=O)C4)ncnc3c2c1C (centres unmarked)                   67
12  Cc1cc(C)c2c(n1)sc1c(C3CCN(C(=O)C4CC4)CC3)ncnc12                 43.5
13  Cc1cc(C)c2c(n1)sc1c(C3CCN(C(=O)C4(C)CC4)CC3)ncnc12                   63
14               CCc1ncnc2c1sc1nc(C)cc(C)c12                 59.1
15  Cc1cc(C)c2c(n1)sc1c(C3CCN(C(=O)C4(F)CC4)CC3)ncnc12                   62
16           Cc1nnc2sc3c(C4CCOCC4)ncnc3c2c1C                 74.6
17       Cc1cc(C)c2c(n1)sc1c(C3CCCCC3)ncnc12                 70.8
18  Cc1nnc2sc3c(C4CCN(C(=O)C5(F)CC5)CC4)ncnc3c2c1C                 39.1
19  Cc1nnc2sc3c(CCC4CCCCO4)ncnc3c2c1C (centres unmarked)                 59.8
20       Cc1nnc2sc3c(C4CC(F)(F)C4)ncnc3c2c1C                 72.1
21           Cc1nnc2sc3c(C4CCCCC4)ncnc3c2c1C                 72.6
22          Cc1nnc2sc3c(CC(C)(C)C)ncnc3c2c1C                 75.6
23        Cc1cc(C)c2c(n1)sc1c(C3CCCC3)ncnc12                 70.9
24             CCCCc1ncnc2c1sc1nnc(C)c(C)c12                 93.4
25  Cc1nnc2sc3c(C4CCN(C(=O)C5CC5)CC4)ncnc3c2c1C                 36.5
26              Cc1nnc2sc3c(C4CC4)ncnc3c2c1C                 73.5
27  Cc1cc(C)c2c(n1)sc1c(C3CCN(C(=O)C4CCCO4)CC3)ncnc12 (centres unmarked)                   44
28              Cc1cc(C)c2c(n1)sc1c(C)ncnc12                 58.1
29           C/C=C/c1ncnc2c1sc1nc(C)cc(C)c12                 55.3
